Reference source for all entries: patent US20180112001A1

target: T1, human MUC16 (mucin 16), endogenously expressed on cells (human); experiment: MSD electrochemiluminescence cell binding; RLU ratio OVCAR-3/SK-OV-3; Ab 16.7 nM
T1 construct: Endogenous MUC16 on OVCAR-3 / OVCAR3-Luc / PEO-1 / HPAC cells; also called hMUC16
For each record, write down the corresponding Ratio: anti-MUC16 Binding OVCAR-3/SK-OV-3.
Numbers only here, please. The scale is ratio.

Identify measured Ratio: anti-MUC16 Binding OVCAR-3/SK-OV-3 corresponding to H1H9529N (antibody, human IgG1, V domains shown, Human IgG1 Fc version) VH: QVQLQQWGAGLLKPSETLSLTCAVYGGSFSGFYWSWIRQPPGKGLEWIGEINHSGSAKYNPSLKNRVIISIDTSKNQFSLKLDSVTAADTAVYNCARQGWNFAIFDYWGQGTLVDVSS VL: DIVMTQSPDSLAVSLGGRATINCKSSQSVLHSSYNKDHLAWYQQRPGQPPKLLIYWASTRESGVPDRFSGSGSGTDFTLTISSLQAEDVAVYYCQQYNILPPTFGQGTRVEIK
74

Answer with the recorded Ratio: anti-MUC16 Binding OVCAR-3/SK-OV-3 of H1H9528N (antibody, human IgG1, V domains shown, Human IgG1 Fc version) VH: QMQLQESGPGLVKPSETLSLTCTVSGGSISSYYWNWIRQPPGKGLEWIGYIYYSGNNFNPSLKSRVTISVDTSKNQFSLKLSSVTAADTAVYYCARAFHWNYEFDYWGQGTLVTVSS VL: EIVLTQSPGTLSLSPGERATLSCRASQSVSNNYLAWYQQKPGQAPRLLLYGASSRTTDIPDRFSGSGSGTDFTLTISRLEPEDFAVYYCQQYDNSPLTFGGGTKVEIR only.
18

Give a short answer stating reported Ratio: anti-MUC16 Binding OVCAR-3/SK-OV-3 for H1H8755P (antibody, human IgG1, V domains shown, Human IgG1 (H1H)) VH: EVQLVESGGGLVQPGRSLRLSCAASGFTFNDYAMHWVRQSPGKGLEWVSGIDWNGGSIDYADSVKGRFTISRDTAKNSLYLQMNSLKVEDTALYYCAKDIGHWNYIGGMDVWGQGTTVTVSS VL: DIQMTQSPSSLSASVGDRVTITCRASQSINIYLNWYQQKPGKAPKFLIYAASSLQTGVPSRFSGSGSGTDFTLTISSLEPEDFATYYCQHSYSTPPITFGQGTRLEIK .
5

Given H1H8783P (antibody, human IgG1, V domains shown, Human IgG1 (H1H)) VH: QVQLVESGGGVVQPGRSLRLSCAASGFTFSDHAMHWVRQAPGKGLEWVAVISYHGTDKQYGDSVKGRFTISRDNSKNALYLQMNSLRPEDTAMYYCAKDGYDFWNAYSLFDYWGQGTLVTVSS VL: DIQMTQSPSSLSASVGDRVTITCRASQSISNYLNWYQQKPGKAPKLLIYTASSLLSGVPSRFSGSGSGTDFTLTISSLQPEDFATYYCQQSYSTPPITFGQGTRLEIK , respond with its Ratio: anti-MUC16 Binding OVCAR-3/SK-OV-3.
4
